Biological target: T1, human MASP-2 protein (recombinant, full-length, C-terminal tag) (human, UniProt O00187 16-686)
T1 construct: The protein was secreted and purified on an anti-FLAG or anti-HIS column; also called hMASP-2; Full-length human MASP-2 protein; not shown: C-terminal HIS-tag or FLAG-tag
T1 sequence (O00187 16-686): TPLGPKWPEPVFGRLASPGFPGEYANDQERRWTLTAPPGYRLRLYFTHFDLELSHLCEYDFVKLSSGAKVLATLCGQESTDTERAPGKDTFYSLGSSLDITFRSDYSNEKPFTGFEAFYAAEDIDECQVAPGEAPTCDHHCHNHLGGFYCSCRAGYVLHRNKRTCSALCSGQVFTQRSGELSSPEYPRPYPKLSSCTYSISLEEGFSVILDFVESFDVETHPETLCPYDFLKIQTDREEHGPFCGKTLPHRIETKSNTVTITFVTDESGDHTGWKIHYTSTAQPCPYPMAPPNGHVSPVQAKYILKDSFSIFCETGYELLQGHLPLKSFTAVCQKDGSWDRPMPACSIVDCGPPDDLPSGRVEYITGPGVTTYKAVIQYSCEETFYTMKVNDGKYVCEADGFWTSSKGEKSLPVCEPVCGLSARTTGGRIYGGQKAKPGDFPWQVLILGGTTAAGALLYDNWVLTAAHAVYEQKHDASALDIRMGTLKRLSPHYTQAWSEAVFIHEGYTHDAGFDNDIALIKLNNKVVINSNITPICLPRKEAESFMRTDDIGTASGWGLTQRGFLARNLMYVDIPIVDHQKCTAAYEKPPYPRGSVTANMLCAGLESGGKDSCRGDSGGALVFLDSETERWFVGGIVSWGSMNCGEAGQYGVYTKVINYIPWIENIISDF
Test: BLI (ForteBio Octet RED96), antibody on Protein A biosensor, human MASP-2 in solution (100, 50, 25 nM)
The following binders are listed with their measured kon values.
Could you give me the number in M⁻¹ s⁻¹? Just the number is fine.

>>> reported("129C10 HbLa (antibody, human IgG4, V domains shown, Humanized) VH: QVQLVQSGAEVKKPGASVKVSCKASGYTFTDYYINWVRQAPGQGLEWMGWIFPGSESAYHSEKFKARATLTVDTSISTAYMELSRLRSDDTAVYYCTRGDRSGPFAYWGQGTLVTVSS VL: DVVMTQSPLSLPVTLGQPASISCKSSQSLLYSNGKTYLNWLQQRPGQSPRRLIYLVSKLDSGVPDRFSGSGSGTDFTLKISRVEAEDVGVYYCVQVTHFPFTFGQGTKLEIK")
32900

Now examine the next entry.
I have this binder here, 129C10 HcLb (antibody, human IgG4, V domains shown, Humanized) VH: QVQLVQSGAEVKKPGASVKVSCKASGYTFTDYYINWVRQAPGQGLEWMGWIFPGSESAYHSQKFQGRVTMTVDTSISTAYMELSRLRSDDTAVYYCTRGDRSGPFAYWGQGTLVTVSS VL: DVVMTQSPLSLPVTLGQPASISCKSSQSLLYSNGKTYLNWLQQRPGQSPRRLIYLVSKLDSGVPDRFSGSGSGADFTLKISRVEAEDVGVYYCVQVTHFPFTFGQGTKLEIK , and I need its recorded kon.
33700
